Test system: quackgrass
procedure summary: Test F preemergence test
Format: in vivo, Elytrigia repens
experimental context: 62 g ai/ha, Preemergence; scale 0 to 100
Quackgrass plant response rating listing for selected compounds.
attribute measured: Quackgrass plant response rating

[
  {
    "compound": "Cc1cc[n+]([O-])c(S(=O)(=O)C(C)c2c(C(F)(F)F)nn(C)c2OC(F)F)c1 (centres unmarked) [Compound 11]",
    "numeric value": 75
  },
  {
    "compound": "Cn1nc(C(F)(F)F)c(C[S+]([O-])c2ccc(F)c[n+]2[O-])c1OCC(F)(F)F (centres unmarked) [Compound 67]",
    "numeric value": 85
  },
  {
    "compound": "CC(Oc1c(C[S+]([O-])c2cccc[n+]2[O-])c(C(F)(F)F)nn1C)C(F)(F)F (centres unmarked) [Compound 77]",
    "numeric value": 40
  },
  {
    "compound": "CC(c1c(C(F)(F)F)nn(C)c1OC(F)F)S(=O)(=O)c1cccc[n+]1[O-] (centres unmarked) [Compound 5]",
    "numeric value": 85
  },
  {
    "compound": "Cc1cc[n+]([O-])c(S(=O)(=O)Cc2c(C(F)(F)F)nn(C)c2OC(F)F)c1 [Compound 2]",
    "numeric value": 60
  }
]

---

System: barnyardgrass
procedure summary: Test F preemergence test
Assay type: in vivo, Echinochloa crus-galli
experimental context: 125 g ai/ha, preemergence, scale 0 to 100

[
  {
    "compound": "Cc1cc[n+]([O-])c(S(=O)(=O)Cc2c(C(F)(F)F)nn(C)c2Cl)c1",
    "Barnyardgrass plant response rating": 98
  },
  {
    "compound": "CC(Oc1c(C[S+]([O-])c2ccc(Cl)c[n+]2[O-])c(C(F)(F)F)nn1C)C(F)(F)F (stereo not shown)",
    "Barnyardgrass plant response rating": 100
  },
  {
    "compound": "Cn1nc(C(F)(F)F)c(C[S+]([O-])c2ccc(F)c[n+]2[O-])c1OC(F)F (stereo not shown)",
    "Barnyardgrass plant response rating": 100
  },
  {
    "compound": "Cn1nc(C(F)(F)F)c(C[S+]([O-])c2ccc(Cl)c[n+]2[O-])c1OCC(F)(F)F (racemic)",
    "Barnyardgrass plant response rating": 100
  }
]

---

Tested on: catchweed bedstraw
procedure summary: Test C pre-/postemergence test
Assay type: in vivo, Galium aparine
experimental context: 125 g ai/ha, preemergence; scale 0 (no effect) to 100 (complete control)
Galium plant response rating listing for selected compounds.
attribute measured: Galium plant response rating

[
  {
    "compound": "CC(C)c1cc[n+]([O-])c([S+]([O-])Cc2c(C(F)(F)F)nn(C)c2OC(F)F)c1 (stereo not shown)",
    "numeric value": 100
  },
  {
    "compound": "CC(Oc1c(C[S+]([O-])c2ccc(Cl)c[n+]2[O-])c(C(F)(F)F)nn1C)C(F)(F)F (stereo not shown)",
    "numeric value": 100
  },
  {
    "compound": "Cn1nc(C(F)(F)F)c(C[S+]([O-])c2cccc[n+]2[O-])c1OCC(F)F (stereo not shown)",
    "numeric value": 100
  },
  {
    "compound": "CCc1cc[n+]([O-])c([S+]([O-])Cc2c(C(F)(F)F)nn(C)c2OC(F)F)c1 (stereo not shown)",
    "numeric value": 98
  },
  {
    "compound": "Cc1cc[n+]([O-])c(S(=O)(=O)Cc2c(C(F)(F)C(F)(F)F)nn(C)c2OCC(F)(F)F)c1",
    "numeric value": 100
  },
  {
    "compound": "CCc1cc[n+]([O-])c(S(=O)(=O)Cc2c(C(F)(F)F)nn(C)c2OC(F)F)c1",
    "numeric value": 100
  },
  {
    "compound": "Cn1nc(C(F)(F)F)c(C[S+]([O-])c2ccc(Cl)c[n+]2[O-])c1OCC(F)F (stereo not shown)",
    "numeric value": 100
  },
  {
    "compound": "Cn1nc(C(F)(F)F)c(C[S+]([O-])c2ccc(F)c[n+]2[O-])c1Cl (stereo not shown)",
    "numeric value": 85
  },
  {
    "compound": "CC(c1c(C(F)(F)F)nn(CC(F)(F)F)c1Cl)[S+]([O-])c1cccc[n+]1[O-] (stereo not shown)",
    "numeric value": 85
  },
  {
    "compound": "Cn1nc(C(F)(F)F)c(C(Cl)S(=O)(=O)c2cccc[n+]2[O-])c1OC(F)F (stereo not shown)",
    "numeric value": 95
  }
]

---

System: blackgrass
procedure summary: Test C pre-/postemergence test
Type: in vivo, Alopecurus myosuroides
experimental context: Preemergence, 31 g ai/ha; scale 0 to 100 (0 no effect, 100 complete control)

[
  {
    "compound": "Cn1nc(C(F)(F)F)c(CS(=O)(=O)c2cc(C(C)(C)C)cc[n+]2[O-])c1OC(F)F",
    "Plant response rating, Blackgrass": 0
  },
  {
    "compound": "Cn1nc(C(F)(F)F)c(C[S+]([O-])c2cccc[n+]2[O-])c1OCC(F)F (centres unmarked)",
    "Plant response rating, Blackgrass": 60
  },
  {
    "compound": "CCn1nc(C(F)(F)F)c(CS(=O)(=O)c2cccc[n+]2[O-])c1OCC(F)(F)F",
    "Plant response rating, Blackgrass": 70
  },
  {
    "compound": "CC(c1c(C(F)(F)F)nn(C)c1OC(F)F)S(=O)(=O)c1cc(C(C)(C)C)cc[n+]1[O-] (racemic)",
    "Plant response rating, Blackgrass": 80
  },
  {
    "compound": "Cc1cc[n+]([O-])c([S+]([O-])Cc2c(C(F)(F)F)nn(C)c2OCC(F)(F)F)c1 (racemic)",
    "Plant response rating, Blackgrass": 80
  },
  {
    "compound": "CC(c1c(C(F)(F)F)nn(CC(F)(F)F)c1Cl)[S+]([O-])c1cccc[n+]1[O-] (centres unmarked)",
    "Plant response rating, Blackgrass": 70
  },
  {
    "compound": "Cn1nc(C(F)(F)C(F)(F)F)c(C[S+]([O-])c2cccc[n+]2[O-])c1OCC(F)(F)F (centres unmarked)",
    "Plant response rating, Blackgrass": 98
  },
  {
    "compound": "Cn1nc(C(F)(F)F)c(CS(=O)(=O)c2ccc(Cl)c[n+]2[O-])c1Cl",
    "Plant response rating, Blackgrass": 0
  },
  {
    "compound": "Cn1nc(C(F)(F)F)c(C[S+]([O-])c2ccc(F)c[n+]2[O-])c1OCC(F)(F)F (centres unmarked)",
    "Plant response rating, Blackgrass": 90
  },
  {
    "compound": "C#CCOc1c(C[S+]([O-])c2cccc[n+]2[O-])c(C(F)(F)F)nn1C (centres unmarked)",
    "Plant response rating, Blackgrass": 0
  },
  {
    "compound": "Cc1cc[n+]([O-])c([S+]([O-])Cc2c(C(F)(F)F)nn(C)c2Cl)c1 (racemic)",
    "Plant response rating, Blackgrass": 70
  },
  {
    "compound": "Cn1nc(C(F)(F)F)c(C[S+]([O-])c2cc(F)cc[n+]2[O-])c1Cl (racemic)",
    "Plant response rating, Blackgrass": 70
  },
  {
    "compound": "Cn1nc(C(F)(F)C(F)(F)F)c(C[S+]([O-])c2ccc(Cl)c[n+]2[O-])c1OCC(F)(F)F (centres unmarked)",
    "Plant response rating, Blackgrass": 85
  },
  {
    "compound": "[O-][n+]1cc(Cl)ccc1[S+]([O-])Cc1c(C(F)(F)F)nn(CC(F)(F)F)c1Cl (centres unmarked)",
    "Plant response rating, Blackgrass": 50
  }
]

---

Barnyardgrass plant response rating listing for selected compounds.
Test system: barnyardgrass
procedure summary: Test A pre-/postemergence greenhouse test
Format: in vivo, Echinochloa crus-galli
experimental context: Preemergence, 125 g ai/ha; 0 to 100 scale, 0 no effect, 100 complete control
attribute measured: Barnyardgrass plant response rating

[
  {
    "compound": "Cn1nc(C(F)(F)F)c(CS(=O)(=O)c2cc(C(C)(C)C)cc[n+]2[O-])c1OC(F)F",
    "measurement target": "barnyardgrass",
    "attribute measured": "Barnyardgrass plant response rating",
    "numeric value": 90
  },
  {
    "compound": "Cc1cc[n+]([O-])c(S(=O)(=O)Cc2c(C(F)(F)F)nn(C)c2Cl)c1",
    "measurement target": "barnyardgrass",
    "attribute measured": "Barnyardgrass plant response rating",
    "numeric value": 80
  },
  {
    "compound": "Cn1nc(C(F)(F)F)c(C[S+]([O-])c2cc(C(F)(F)F)cc[n+]2[O-])c1Cl (racemic)",
    "measurement target": "barnyardgrass",
    "attribute measured": "Barnyardgrass plant response rating",
    "numeric value": 80
  },
  {
    "compound": "CCCc1cc[n+]([O-])c(S(=O)(=O)Cc2c(C(F)(F)F)nn(C)c2OC(F)F)c1",
    "measurement target": "barnyardgrass",
    "attribute measured": "Barnyardgrass plant response rating",
    "numeric value": 20
  },
  {
    "compound": "CCn1nc(C(F)(F)F)c(CS(=O)(=O)c2cccc[n+]2[O-])c1OCC(F)(F)F",
    "measurement target": "barnyardgrass",
    "attribute measured": "Barnyardgrass plant response rating",
    "numeric value": 90
  },
  {
    "compound": "Cn1nc(OC(F)F)c(CS(=O)(=O)c2cccc[n+]2[O-])c1C(F)(F)F",
    "measurement target": "barnyardgrass",
    "attribute measured": "Barnyardgrass plant response rating",
    "numeric value": 90
  },
  {
    "compound": "CC(c1c(C(F)(F)F)nn(CC(F)(F)F)c1Cl)S(=O)(=O)c1ccc(Cl)c[n+]1[O-] (centres unmarked)",
    "measurement target": "barnyardgrass",
    "attribute measured": "Barnyardgrass plant response rating",
    "numeric value": 30
  },
  {
    "compound": "Cn1nc(C(F)(F)F)c(CS(=O)(=O)c2ccc(Br)c[n+]2[O-])c1OC(F)F",
    "measurement target": "barnyardgrass",
    "attribute measured": "Barnyardgrass plant response rating",
    "numeric value": 50
  }
]
